# systemTested: B-Raf kinase (Homo sapiens, UniProt P15056)
# Construct: GST (N); purchased Sigma
# Sequence (P15056 416-766): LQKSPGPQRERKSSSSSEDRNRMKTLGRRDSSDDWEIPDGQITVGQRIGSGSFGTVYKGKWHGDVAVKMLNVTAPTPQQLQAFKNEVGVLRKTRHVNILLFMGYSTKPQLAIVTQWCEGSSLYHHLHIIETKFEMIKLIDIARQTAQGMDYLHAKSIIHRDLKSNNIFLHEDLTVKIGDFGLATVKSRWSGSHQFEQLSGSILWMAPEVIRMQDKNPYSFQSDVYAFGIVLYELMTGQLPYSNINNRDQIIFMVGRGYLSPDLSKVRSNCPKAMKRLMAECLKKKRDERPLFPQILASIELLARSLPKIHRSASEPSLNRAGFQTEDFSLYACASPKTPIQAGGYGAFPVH
# protocolDetails: Biochemical assay for B-Raf.1 (coupled pyruvate kinase/lactate dehydrogenase)
# assaySetup: read-out: BRAF.1 IC50
pIC50: −log10 of the molar value.
Entries and their measured pIC50 follow.
propertyMeasured: pIC50

{"molecule": "COC(=O)Nc1cc(-c2cnnc(-c3cc(NC(=O)N4CC[C@@H](OC)C4)cnc3C)c2)ccn1", "propertyMeasured": "pIC50", "result": "< 6.00"}
{"molecule": "Cc1ccc(NC(=O)Nc2cccc(C(F)(F)F)c2)cc1-c1cc(OCCO)nc(N2CCOCC2)c1", "propertyMeasured": "pIC50", "result": "≥ 7.00"}
{"molecule": "Cc1ccc(NC(=O)N2CC[C@@H](C(C)C)C2)cc1-c1cncc(-c2cc(NC(=O)C3CC3)ncn2)c1", "propertyMeasured": "pIC50", "result": "≥ 7.00"}
{"molecule": "Cc1ccc(NC(=O)N2CCC(CC(F)(F)F)C2)cc1-c1cncc(-c2cc(NC(=O)C3CC3)ncn2)c1 (stereo not drawn)", "propertyMeasured": "pIC50", "result": "≥ 7.00"}
{"molecule": "Cc1cc(F)c(NC(=O)NCCC(C)(C)F)cc1-c1cccc(-c2ccnc3[nH]ncc23)c1", "propertyMeasured": "pIC50", "result": "≥ 7.00"}
{"molecule": "Cc1cc(F)c(NC(=O)NCCC2(C)CC2)cc1-c1cc(OC2CCN(C)CC2)nc(-c2ccncc2)c1", "propertyMeasured": "pIC50", "result": "6.30 to 7.00"}
{"molecule": "CNC(=O)c1cc(-c2cnnc(-c3cc(NC(=O)N4CCC(CC(F)(F)F)C4)cnc3C)c2)ccn1 (stereo not drawn)", "propertyMeasured": "pIC50", "result": "< 6.00"}
{"molecule": "Cc1ncc(NC(=O)NCCC2(C)CC2)cc1-c1cc(OCCO)nc(-c2ccnc(NC(=O)C3CC3)c2)c1", "propertyMeasured": "pIC50", "result": "≥ 7.00"}
{"molecule": "Cc1ncc(NC(=O)NCCC(C)(C)C)cc1-c1cc(N2CCOCC2)nc(N2CCOCC2)c1", "propertyMeasured": "pIC50", "result": "6.00 to 6.30"}
{"molecule": "Cc1ccc(NC(=O)N2CC[C@@H](C)C2)cc1-c1cncc(-c2cc(NC(=O)C3CC3)ncn2)c1", "propertyMeasured": "pIC50", "result": "≥ 7.00"}
{"molecule": "COC(=O)Nc1cc(-c2nccc(-c3cc(NC(=O)NCCC(C)(C)OC)c(F)cc3C)n2)ccn1", "propertyMeasured": "pIC50", "result": "≥ 7.00"}
{"molecule": "COC(=O)Nc1cc(-c2cc(-c3cc(NC(=O)NCCC(C)C)c(F)cc3C)cc(OCCO)n2)ccn1", "propertyMeasured": "pIC50", "result": "≥ 7.00"}
{"molecule": "Cc1ncc(NC(=O)NCCC2(C)CC2)cc1-c1ccnc(-c2ccnc(NC(=O)C3CC3)c2)n1", "propertyMeasured": "pIC50", "result": "≥ 7.00"}
{"molecule": "Cc1ccc(NC(=O)N2CC[C@H](C(C)C)C2)cc1-c1cncc(-c2cc(NC(=O)C3CC3)ncn2)c1", "propertyMeasured": "pIC50", "result": "≥ 7.00"}
{"molecule": "CNC(=O)c1cc(-c2cnnc(-c3cc(NC(=O)NCCC(C)(C)C)c(F)cc3C)c2)ccn1", "propertyMeasured": "pIC50", "result": "6.30 to 7.00"}
